system: Calf thymus DNA; assay: Inhibition of methyl green binding to calf thymus DNA incubated for 24 hrs in dark by spectrophotometric method; assay type: nucleic-acid assay, Bos taurus
REPORTED ENDPOINT: pIC50
Give bare numbers, as −log10 of the molar value.

Field: example entries. Status: answers known.
COc1cccc2c1C(=O)c1c(O)c3c(c(O)c1C2=O)C[C@@](O)(C(=O)CO)C[C@@H]3O[C@H]1C[C@H](N)[C@H](O)[C@H](C)O1 [DOXORUBICIN]	4.52
COc1cccc(NC(=O)CSc2nnc3c4nncn4c4ccccc4n23)c1	4.41
c1ccc2c(c1)nc(NC1CCCCC1)c1nncn12	4.40
O=C(NNc1nc2ccccc2n2cnnc12)Nc1ccccc1	4.51
Sc1nnc2c3nncn3c3ccccc3n12	4.53

Shift focus to the following entry.
Notebook: CCOC(=O)CSc1nnc2c3nncn3c3ccccc3n12 , pIC50 read as 4.20

* * *

target: DNA topoisomerase 2-alpha (Homo sapiens)
Sequence (P11388 whole entry): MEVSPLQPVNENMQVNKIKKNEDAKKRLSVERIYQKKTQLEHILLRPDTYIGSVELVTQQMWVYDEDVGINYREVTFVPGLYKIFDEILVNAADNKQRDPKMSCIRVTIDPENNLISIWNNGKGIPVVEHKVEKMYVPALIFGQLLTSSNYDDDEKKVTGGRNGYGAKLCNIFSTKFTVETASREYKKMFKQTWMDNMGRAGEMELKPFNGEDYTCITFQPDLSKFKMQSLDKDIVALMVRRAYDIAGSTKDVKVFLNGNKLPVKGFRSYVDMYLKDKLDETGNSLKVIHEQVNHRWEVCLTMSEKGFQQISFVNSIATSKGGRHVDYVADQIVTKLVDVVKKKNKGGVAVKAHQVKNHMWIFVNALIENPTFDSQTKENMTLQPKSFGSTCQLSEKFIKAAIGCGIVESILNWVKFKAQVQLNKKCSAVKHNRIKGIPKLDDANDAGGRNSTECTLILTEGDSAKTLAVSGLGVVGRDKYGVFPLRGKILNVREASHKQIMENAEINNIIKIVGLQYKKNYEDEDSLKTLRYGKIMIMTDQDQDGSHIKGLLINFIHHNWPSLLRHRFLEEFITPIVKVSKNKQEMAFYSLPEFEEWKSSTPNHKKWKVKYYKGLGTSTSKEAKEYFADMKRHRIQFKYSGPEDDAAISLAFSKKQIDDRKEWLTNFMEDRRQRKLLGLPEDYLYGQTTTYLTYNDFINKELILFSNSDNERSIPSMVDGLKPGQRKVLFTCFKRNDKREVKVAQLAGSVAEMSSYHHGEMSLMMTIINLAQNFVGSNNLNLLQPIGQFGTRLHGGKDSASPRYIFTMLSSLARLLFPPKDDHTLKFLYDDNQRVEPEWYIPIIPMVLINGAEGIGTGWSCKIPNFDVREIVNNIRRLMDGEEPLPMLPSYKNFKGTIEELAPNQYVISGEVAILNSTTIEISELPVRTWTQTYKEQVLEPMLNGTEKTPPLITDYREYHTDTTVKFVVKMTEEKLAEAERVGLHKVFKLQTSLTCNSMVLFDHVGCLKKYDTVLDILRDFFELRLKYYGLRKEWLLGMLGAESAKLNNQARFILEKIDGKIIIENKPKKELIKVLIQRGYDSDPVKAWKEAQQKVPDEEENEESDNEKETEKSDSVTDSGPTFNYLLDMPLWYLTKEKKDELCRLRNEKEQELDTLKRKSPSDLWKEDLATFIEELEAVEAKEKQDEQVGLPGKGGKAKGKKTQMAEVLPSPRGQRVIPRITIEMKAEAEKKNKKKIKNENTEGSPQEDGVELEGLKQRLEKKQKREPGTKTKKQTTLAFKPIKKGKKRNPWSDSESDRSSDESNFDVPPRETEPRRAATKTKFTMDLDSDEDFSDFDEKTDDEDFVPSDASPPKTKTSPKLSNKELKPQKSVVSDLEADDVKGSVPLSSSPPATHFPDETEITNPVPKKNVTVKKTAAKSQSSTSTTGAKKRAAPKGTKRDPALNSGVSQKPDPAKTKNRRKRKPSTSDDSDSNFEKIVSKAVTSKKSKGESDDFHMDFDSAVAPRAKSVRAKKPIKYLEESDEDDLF
Give measured IC50 for each item. Keep answers brief.
Give bare numbers, in nM.

Field: example entries. Status: answers known.
O=C(NNc1nc2ccccc2n2cnnc12)NC1CCCCC1	1220
O=C(NNc1nc2ccccc2n2cnnc12)Nc1ccccc1	1190
CCOC(=O)CSc1nnc2c3nncn3c3ccccc3n12	2120
Clc1ccccc1/C=N/Nc1nc2ccccc2n2cnnc12	1910
Sc1nnc2c3nncn3c3ccccc3n12	1060

Please give IC50, item by item, for the list that follows.
1. CCCCNc1nc2ccccc2n2cnnc12
2. Clc1cccc(Cl)c1/C=N/Nc1nc2ccccc2n2cnnc12
3. COc1cccc2c1C(=O)c1c(O)c3c(c(O)c1C2=O)C[C@@](O)(C(=O)CO)C[C@@H]3O[C@H]1C[C@H](N)[C@H](O)[C@H](C)O1

Completion:
1: 1940; 2: 2970; 3: 880

* * *

tested on: Calf thymus DNA; assay: Inhibition of methyl green binding to calf thymus DNA incubated for 24 hrs in dark by spectrophotometric method; assay type: nucleic-acid assay, Bos taurus
Give measured IC50 for each item. Keep answers brief.
One number for each entry, in µM.

S=C(NNc1nc2ccccc2n2cnnc12)Nc1ccccc1	34.3
Clc1ccccc1/C=N/Nc1nc2ccccc2n2cnnc12	52.3
O=C(CSc1nnc2c3nncn3c3ccccc3n12)Nc1ccc(F)cc1	43.4
Clc1cccc(Cl)c1/C=N/Nc1nc2ccccc2n2cnnc12	40.1
O=C(NNc1nc2ccccc2n2cnnc12)NC1CCCCC1	28.4

Please give IC50, item by item, for the list that follows.
1. CNc1nc2ccccc2n2cnnc12
2. CCCCNc1nc2ccccc2n2cnnc12

Completion:
1: 48.6; 2: 49.1

Data provenance: ChEMBL document CHEMBL4270528
